# Target Or Test System: T1, human CD131 (human, UniProt P32927 17-897)
# T1 sequence: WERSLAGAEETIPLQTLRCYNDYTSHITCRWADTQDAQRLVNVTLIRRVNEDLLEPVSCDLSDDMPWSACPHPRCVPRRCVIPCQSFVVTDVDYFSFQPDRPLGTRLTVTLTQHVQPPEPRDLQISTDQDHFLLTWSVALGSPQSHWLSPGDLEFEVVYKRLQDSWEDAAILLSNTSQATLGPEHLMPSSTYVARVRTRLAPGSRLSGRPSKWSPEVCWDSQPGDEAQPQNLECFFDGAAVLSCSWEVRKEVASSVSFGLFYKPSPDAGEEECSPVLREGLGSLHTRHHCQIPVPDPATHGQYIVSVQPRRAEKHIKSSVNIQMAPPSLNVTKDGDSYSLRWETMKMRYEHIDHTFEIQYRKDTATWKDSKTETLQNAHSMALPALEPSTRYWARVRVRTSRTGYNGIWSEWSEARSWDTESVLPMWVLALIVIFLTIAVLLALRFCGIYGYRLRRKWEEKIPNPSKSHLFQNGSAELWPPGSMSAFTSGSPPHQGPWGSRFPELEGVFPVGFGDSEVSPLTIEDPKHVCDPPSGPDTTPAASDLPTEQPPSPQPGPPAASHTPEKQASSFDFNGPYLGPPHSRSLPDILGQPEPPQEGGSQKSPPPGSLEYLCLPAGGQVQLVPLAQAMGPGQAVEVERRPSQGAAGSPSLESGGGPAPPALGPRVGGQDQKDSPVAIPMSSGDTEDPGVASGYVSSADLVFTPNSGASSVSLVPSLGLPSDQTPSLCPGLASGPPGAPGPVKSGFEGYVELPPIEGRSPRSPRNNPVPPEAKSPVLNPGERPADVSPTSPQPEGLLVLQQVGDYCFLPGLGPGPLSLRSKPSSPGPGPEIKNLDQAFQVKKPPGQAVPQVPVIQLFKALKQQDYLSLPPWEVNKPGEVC
# Protocol Summary: cell-based or functional assay
Measured Metric: IC50 GM-CSF, TF-1 proliferation (nM)
Expressed in nM, but write only the number.

binder="9A2-VR40 (antibody, V domains shown) VH: EVQLLESGGGLVQPGGSLRLSCAASGFTFSHYHMLWVRQAPGKGLEWVSSINGYGIQTYYADSVKGRFTISRDNSKNTLYLQMNSLRAEDTAVYYCARFYDSFFDIWGQGTMVTVSS VL: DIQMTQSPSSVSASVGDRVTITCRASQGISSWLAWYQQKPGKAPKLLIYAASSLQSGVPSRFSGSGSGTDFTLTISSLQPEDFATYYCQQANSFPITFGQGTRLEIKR" test_result=5.7
binder="9A2-VR12 (antibody, V domains shown) VH: EVQLLESGGGLVQPGGSLRLSCAASGFTFSHYHMLWVRQAPGKGLEWVSSIRSSGGFTYYADSVKGRFTISRDNSKNTLYLQMNSLRAEDTAVYYCARFYDSFFDIWGQGTMVTVSS VL: DIQMTQSPSSVSASVGDRVTITCRASQGIRPFVSWYQQKPGKAPKLLIYAASSLQSGVPSRFSGSGSGTDFTLTISSLQPEDFATYYCQQANSFPITFGQGTRLEIKR" test_result=198

Next:
input: Query: IC50 GM-CSF, TF-1 proliferation; subject: 9A2-VR27 (antibody, V domains shown) VH: EVQLLESGGGLVQPGGSLRLSCAASGFTFTHYRVHWVRQAPGKGLEWVSSIRSSGGFTYYADSVKGRFTISRDNSKNTLYLQMNSLRAEDTAVYYCARFYDSFFDIWGQGTMVTVSS VL: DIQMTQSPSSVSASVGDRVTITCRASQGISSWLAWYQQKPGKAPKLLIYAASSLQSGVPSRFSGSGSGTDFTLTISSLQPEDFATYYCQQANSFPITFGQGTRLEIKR
output: 4.9
